Readings of pIC50 for the listed compounds
System: CEM cells HIV-1 protection, formazan growth assay
procedure details: NCI AIDS Antiviral Assay
test context: measured here: growth of uninfected CEM cells
Quick note: pIC50 values are minus log10 of concentrations in mol/L.

Please review the following examples before continuing.
>>> print(df.to_string())
                                   compound                               system_name  numeric_result
0  CC1=C(\C=C/C(C)=C/C=C/C(C)=C/C=C/C=C(C)\C=C\C=C(C)/C=C/C2=C(C)CCCC2(C)C)C(C)(C)CCC1  CEM cells HIV-1 protection, formazan growth assay            4.01
1    CN1CCN(C(=O)CCN2c3ccccc3Sc3ccccc32)CC1  CEM cells HIV-1 protection, formazan growth assay            3.93
2   Cc1c2sc3ccccc3[nH]c2nc2[nH]c3ccccc3sc12  CEM cells HIV-1 protection, formazan growth assay            4.83
3                  O=C1c2cscc2C(=O)c2cscc21  CEM cells HIV-1 protection, formazan growth assay            6.47
4  COC1=CC(=O)C(O)=C(C[C@@]2(C)C3CCCC(C)(C)C3=CC[C@@H]2C)C1=O (some centres not stated)  CEM cells HIV-1 protection, formazan growth assay            4.71

Data request: Lab note: CEM cells HIV-1 protection, formazan growth assay assay, enter pIC50 for OC(CC(O)(C(F)(F)F)C(F)(F)F)C(O)c1ccco1 (configuration not stated) here
Data returned: 4.23
